Values were extracted from ChEMBL document CHEMBL1201862.

test system: NCI/ADR-RES; assay: NCI tumour cell line growth inhibition, 48 h
Calls of active or inactive are those of the source. Cut-off read from the data, not from the text of the source: active = GI50 up to about 1.1 µM and inactive = higher.
MEASURED_ENDPOINT: GI50

>>> print(df.to_string())
                                   compound                result
0  COc1ccc2c(c1)CCN1CCc3ccccc3CC21 (stereo unspecified)    42.9 µM (inactive)
1  C[n+]1ccc(Nc2ccc(NC(=O)c3ccc(Nc4cc[n+](C)c5ccc([N+](=O)[O-])cc45)cc3[N+](=O)[O-])cc2)cc1  > 85.7 µM (inactive)
2      CCn1ncc(Oc2c(Cl)cc(N)cc2Cl)c(Cl)c1=O      31 µM (inactive)
3                    c1ccc(CSCCc2ccncc2)cc1   > 100 µM (inactive)
4  COc1ccc2c(c1)[n+]([O-])c1cc(C#N)ccc1[n+]2[O-]    15.5 µM (inactive)
5          CCCc1nc2c(n1CC)C(=O)c1ccccc1C2=O    26.2 µM (inactive)

* * *

system: Malme-3M; assay: NCI tumour cell line growth inhibition, 48 h
The source made the active and inactive calls. Cut-off read from the data, not from the text of the source: active = GI50 up to about 1.1 µM and inactive = higher.
Outcomes: TRUE (active), FALSE (inactive)

In [3]: df
Out[3]:
                                    compound  answer_label
 0  Cc1ccc(C2CC(c3ccco3)=NN2c2ccccc2)o1 (stereo unspecified)         FALSE
 1           N[C@H](C(=O)O)[C@@H](Cl)CC(=O)O         FALSE
 2    Cc1cc2c(cc1Cl)SC(NNC1=NCCN1)=NS2(=O)=O         FALSE
 3         CC(=O)OCc1cc(OC(C)=O)cnc1COC(C)=O         FALSE
 4  CN1CCC(c2c(O)cc(O)c3c(=O)cc(-c4ccccc4Cl)oc23)C(O)C1 (stereo unspecified)          TRUE
 5   OC1C#CCSCC#C/C=C\1 (stereo unspecified)         FALSE
 6                          NCCCCCS(=O)(=O)O         FALSE
 7  CC1(C)OC2COC(c3n[nH]c4c(=O)[nH]c(=O)[nH]c34)C2O1 (stereo unspecified)         FALSE
 8  N=C(N)NS(=O)(=O)c1ccc(NNc2c3ccccc3nc3c(C(=O)Nc4ccc(S(=O)(=O)Nc5ncccn5)cc4)cccc23)cc1         FALSE
 9  CCOC(=O)C(C#N)C1=CC(=O)C(=O)c2ccc(OC)cc21 (stereo unspecified)         FALSE
10  COC1=CC(=O)[C@]2(C)[C@H](C1=O)C(C)[C@H]2c1ccc(OC)cc1 (stereo partly specified)         FALSE

* * *

# reported GI50; entries follow
test system: MOLT-4; assay: NCI tumour cell line growth inhibition, 48 h
The source made the active and inactive calls. Rule as the data show it: active = GI50 up to about 1.1 µM and inactive = higher.
MEASURED_ENDPOINT: GI50

>>> print(df.to_string())
                                    molecule               result
 0     Cc1ccc(S(=O)(=O)Nc2ccccc2C(C)(C)C)cc1   20.9 µM (inactive)
 1  CC12CCC3c4cc(Br)c(O)c(Br)c4CCC3C1CCC2O (stereo unspecified)   17.7 µM (inactive)
 2       COCn1cnc2c(=O)nc(SC)n(-c3ccccc3)c21  > 100 µM (inactive)
 3  CC1=C[C@H](C[C@]2(C)c3c(c4c(C)cccc4oc3=O)O[C@@H]2C)OC1=O   21.1 µM (inactive)
 4  CCOP(=O)(OCC)/C(C#N)=C/c1c(C)[nH]c2ccccc12  > 100 µM (inactive)
 5  Cc1ccc(C)c(NC(=O)CC2C(=O)Nc3ccccc3S2(=O)=O)c1 (stereo unspecified)  > 100 µM (inactive)
 6  N#Cc1cc(NC(=O)c2ccccc2)c(=O)n2c1[nH]c1ccccc12   29.6 µM (inactive)
 7  COc1ccc(N2C(=O)CC(=O)N(C(=O)CCCCCCCCC(=O)N3C(=O)CC(=O)N(c4ccc(OC)cc4)C3=S)C2=S)cc1   54.3 µM (inactive)
 8     C(=C1/CCCCC([n+]2ccccc2)=N1)/c1ccccc1  > 100 µM (inactive)
 9       CC(C)(C)CNC(=O)NCn1cc(-c2ccccc2)nn1  > 100 µM (inactive)
10        CCCCCCCCCCCCO[PH](=O)OCCCCCCCCCCCC  > 100 µM (inactive)
